Every entry's value here was drawn from patent US9073918B2.

IC50, TGF-β R1 ALK5 (Homo sapiens), per-entry values.

Molecule | IC50 [nM]
Fc1ccc(Cl)cc1-c1cc(Nc2ccnc3cn(CC4CC4)nc23)ccn1 [Example 37] | 63.1
CCNC(=O)n1ncc2nccc(Nc3ccnc(-c4cc(Cl)ccc4F)c3)c21 [Example 29] | 100
Cc1ccc(F)c(-c2cc(Nc3ccnc4cnn(C5CCN(S(C)(=O)=O)CC5)c34)ccn2)c1 [Example 78] | 631
Fc1ccc(Cl)cc1-c1cc(Nc2ccnc3cnn(CC4CC4)c23)ccn1 [Example 36] | 631
Cc1ccc(F)c(-c2cc(Nc3c(F)cnc4cn(C[C@H](C)O)nc34)ccn2)n1 [Example 100A] | 398
Cc1ccc(F)c(-c2cc(Nc3ccnc4cnn(CC(=O)NC5CC5)c34)c(C)cn2)n1 [Example 117] | 10
NC(=O)n1ncc2nccc(Nc3ccnc(-c4cc(Cl)ccc4F)c3)c21 [Example 30] | 50.1
COCCn1cc2ncc(F)c(Nc3cc(-c4cc(Cl)ccc4F)ncc3C)c2n1 [Example 16] | 31.6

---

System tested: TGF-β R1 ALK5 (Homo sapiens, UniProt P36897)
Labelling field: enter class 1 if recorded IC50 is less than 6 nM. Enter class 0 if it equals or exceeds that cut-off.

Compound | Class name
Cc1ccc(F)c(-c2cc(Nc3c(F)cnc4cn(C)nc34)c(C)cn2)n1 | class 1
CCNC(=O)n1ncc2nccc(Nc3cc(-c4cc(F)ccc4F)ncc3C)c21 | class 1
Cc1cnc(-c2cc(F)ccc2F)cc1Nc1ccnc2cnn(CC(C)O)c12 (centres unmarked) | class 1
CCS(=O)(=O)n1cc2nccc(Nc3cc(C)nc(-c4cc(Cl)ccc4F)c3)c2n1 | class 0
CNC(=O)Cn1cc2ncc(F)c(Nc3cc(-c4nc(C)ccc4F)ncc3C)c2n1 | class 0
CNC(=O)Cn1ncc2nccc(Nc3ccnc(-c4cc(Cl)ccc4F)c3)c21 | class 0
CCn1cc2ncc(F)c(Nc3cc(-c4nc(C)ccc4F)ncc3C)c2n1 | class 0
Cc1ccc(F)c(-c2cc(Nc3ccnc4cn(C[C@H](C)O)nc34)ccn2)n1 | class 0

---

Where a name gives a salt, the structure may show the parent alone.

Compound | melting point, °C
CN(C)C(=O)Cn1ncc2nccc(Nc3ccnc(-c4cc(Cl)ccc4F)c3)c21 (as salt: TFA) | 293
CNC(=O)n1ncc2nccc(Nc3cc(C)nc(-c4cc(Cl)ccc4F)c3)c21 (as salt: TFA) | 248
Cc1cnc(-c2cc(Cl)ccc2F)cc1Nc1ccnc2cnn(C(=O)NC(C)C)c12 (as salt: TFA) | 292
CCNC(=O)n1ncc2nccc(Nc3ccnc(-c4cc(Cl)ccc4F)c3)c21 (as salt: TFA) | 256
CNC(=O)n1ncc2nccc(Nc3cc(-c4cc(Cl)ccc4F)ncc3C)c21 (as salt: TFA) | 135
CCNC(=O)n1ncc2nccc(Nc3cc(C)nc(-c4cc(Cl)ccc4F)c3)c21 (as salt: TFA) | 245
CNC(=O)n1ncc2nccc(Nc3ccnc(-c4cc(Cl)ccc4F)c3)c21 (as salt: TFA) | 256

---

System tested: cellular TGF-β R1 ALK5 (Homo sapiens)
Sequence (P36897 34-503): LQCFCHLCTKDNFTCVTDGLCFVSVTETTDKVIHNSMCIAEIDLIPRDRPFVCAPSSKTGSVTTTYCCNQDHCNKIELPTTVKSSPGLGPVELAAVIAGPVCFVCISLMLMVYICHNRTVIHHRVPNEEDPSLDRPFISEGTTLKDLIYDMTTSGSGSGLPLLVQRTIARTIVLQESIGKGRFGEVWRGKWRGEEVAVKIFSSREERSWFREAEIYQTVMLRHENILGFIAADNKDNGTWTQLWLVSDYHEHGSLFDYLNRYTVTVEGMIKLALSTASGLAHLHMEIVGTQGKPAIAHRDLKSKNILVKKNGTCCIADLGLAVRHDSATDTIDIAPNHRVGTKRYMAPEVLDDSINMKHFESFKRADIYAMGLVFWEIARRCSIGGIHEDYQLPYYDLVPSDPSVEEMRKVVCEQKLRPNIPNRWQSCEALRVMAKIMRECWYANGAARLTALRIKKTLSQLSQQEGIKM
Assay protocol: Cellular inhibition of ALK5 (CellSensor SBE-bla HEK 293T beta-lactamase reporter)
Conditions used: cellular inhibition of ALK5, SBE-bla HEK 293T cells, TGFb-1 stimulated 5 hours; average where measured in multiple experiments
pIC50: −log10 of the molar value.

Molecule | System tested | pIC50
CCNC(=O)n1ncc2nccc(Nc3cc(-c4nc(C)ccc4F)ncc3C)c21 | cellular TGF-β R1 ALK5 (Homo sapiens) | 8.20
CCCn1ncc2nccc(Nc3ccnc(-c4cc(Cl)ccc4F)c3)c21 | cellular TGF-β R1 ALK5 (Homo sapiens) | 6.20
Cc1cnc(-c2cc(F)ccc2F)cc1Nc1ccnc2cn(CCC(C)(C)O)nc12 | cellular TGF-β R1 ALK5 (Homo sapiens) | 6.80
Fc1ccc(Cl)cc1-c1cc(Nc2ccnc3cn[nH]c23)ccn1 | cellular TGF-β R1 ALK5 (Homo sapiens) | 7.30
CCNC(=O)n1ncc2nccc(Nc3nc(-c4cc(F)ccc4F)ncc3C)c21 | cellular TGF-β R1 ALK5 (Homo sapiens) | 6.40
CNC(=O)n1ncc2nccc(Nc3cc(-c4cccc(C)n4)ncc3C)c21 | cellular TGF-β R1 ALK5 (Homo sapiens) | 6.90
Cc1ccc(F)c(-c2cc(Nc3ccnc4cnn(CCF)c34)c(C)cn2)n1 | cellular TGF-β R1 ALK5 (Homo sapiens) | 7.70
OC[C@H](O)Cn1cc2nccc(Nc3ccnc(-c4cc(Cl)ccc4F)c3)c2n1 | cellular TGF-β R1 ALK5 (Homo sapiens) | 6.50
CCNC(=O)n1ncc2nccc(Nc3cc(-c4cc(F)ccc4F)ncc3C)c21 | cellular TGF-β R1 ALK5 (Homo sapiens) | 7.70
CNC(=O)Cn1cc2nccc(Nc3ccnc(-c4nc(C)ccc4F)c3)c2n1 | cellular TGF-β R1 ALK5 (Homo sapiens) | 4.90
Cc1cnc(-c2cc(Cl)ccc2F)cc1Nc1ccnc2cnn(C(=O)NC(C)C)c12 | cellular TGF-β R1 ALK5 (Homo sapiens) | 7.00
Cc1cnc(-c2cc(F)ccc2F)cc1Nc1ccnc2cn[nH]c12 | cellular TGF-β R1 ALK5 (Homo sapiens) | 8.10
Fc1ccc(Cl)cc1-c1cc(Nc2ccnc3cn(CC4CCNCC4)nc23)ccn1 | cellular TGF-β R1 ALK5 (Homo sapiens) | 6.00
Cc1ccc(F)c(-c2cc(Nc3ccnc4cn(C[C@@H](C)O)nc34)ccn2)n1 | cellular TGF-β R1 ALK5 (Homo sapiens) | 5.90
COCCCn1ncc2nccc(Nc3ccnc(-c4cc(Cl)ccc4F)c3)c21 | cellular TGF-β R1 ALK5 (Homo sapiens) | 6.70
Cc1ccc(F)c(-c2cc(Nc3ccnc4cn(C[C@H](O)CO)nc34)c(C)cn2)n1 | cellular TGF-β R1 ALK5 (Homo sapiens) | 6.70
Cc1ccc(F)c(-c2cc(Nc3ccnc4cn(CC(=O)NC5CC5)nc34)c(C)cn2)n1 | cellular TGF-β R1 ALK5 (Homo sapiens) | 6.10
Cc1ccc(F)c(-c2cc(Nc3c(F)cnc4cnn(C)c34)c(C)cn2)n1 | cellular TGF-β R1 ALK5 (Homo sapiens) | 6.90
COCCCn1cc2nccc(Nc3ccnc(-c4cc(Cl)ccc4F)c3)c2n1 | cellular TGF-β R1 ALK5 (Homo sapiens) | 6.40
Cc1ccc(F)c(-c2cc(Nc3ccnc4cnn(CCC(C)(C)O)c34)ccn2)n1 | cellular TGF-β R1 ALK5 (Homo sapiens) | 7.30
Cc1ccc(F)c(-c2cc(Nc3ccnc4cn(C[C@H](C)O)nc34)c(C)cn2)n1 | cellular TGF-β R1 ALK5 (Homo sapiens) | 7.10
CCn1cc2nccc(Nc3cc(-c4nc(C)ccc4F)ncc3C)c2n1 | cellular TGF-β R1 ALK5 (Homo sapiens) | 7.80
Cc1cnc(-c2cc(Cl)ccc2F)cc1Nc1ccnc2cn[nH]c12 | cellular TGF-β R1 ALK5 (Homo sapiens) | 7.50
CCNC(=O)Cn1cc2nccc(Nc3cc(-c4cc(F)ccc4F)ncc3C)c2n1 | cellular TGF-β R1 ALK5 (Homo sapiens) | 6.90
Cc1ccc(F)c(-c2cc(Nc3ccnc4cnn([C@@H]5CCOC5)c34)c(C)cn2)n1 | cellular TGF-β R1 ALK5 (Homo sapiens) | 7.10
Cc1ccc(F)c(-c2cc(Nc3ccnc4cn(C[C@H](O)CO)nc34)ccn2)n1 | cellular TGF-β R1 ALK5 (Homo sapiens) | 5.30
NC(=O)Cn1cc2nccc(Nc3ccnc(-c4cc(Cl)ccc4F)c3)c2n1 | cellular TGF-β R1 ALK5 (Homo sapiens) | 7.00
CNC(=O)Cn1ncc2nccc(Nc3ccnc(-c4cc(Cl)ccc4F)c3)c21 | cellular TGF-β R1 ALK5 (Homo sapiens) | 6.70
Cc1ccc(F)c(-c2cc(Nc3ccnc4cn(CC(O)C(F)(F)F)nc34)ccn2)n1 (centres unmarked) | cellular TGF-β R1 ALK5 (Homo sapiens) | 6.30
Cc1cnc(-c2cc(Cl)ccc2F)cc1Nc1ccnc2cn(C)nc12 | cellular TGF-β R1 ALK5 (Homo sapiens) | 7.60
CCn1cc2nccc(Nc3ccnc(-c4nc(C)ccc4F)c3)c2n1 | cellular TGF-β R1 ALK5 (Homo sapiens) | 7.40
Cc1ccc(F)c(-c2cc(Nc3ccnc4cnn(C(C)C)c34)ccn2)n1 | cellular TGF-β R1 ALK5 (Homo sapiens) | 6.90
CNC(=O)n1ncc2nccc(Nc3cc(-c4cc(Cl)ccc4F)ncc3C)c21 | cellular TGF-β R1 ALK5 (Homo sapiens) | 7.50
Cc1cnc(-c2cc(Cl)ccc2F)cc1Nc1ccnc2cn(C(C)(C)C(N)=O)nc12 | cellular TGF-β R1 ALK5 (Homo sapiens) | 6.20
Cc1ccc(F)c(-c2cc(Nc3ccnc4cn([C@@H]5CCOC5)nc34)c(C)cn2)n1 | cellular TGF-β R1 ALK5 (Homo sapiens) | 7.10
